# target system: Cdk2(S276C) (C177A) (Homo sapiens, UniProt P24941, C177A/S276C)
# Construct: poly-histidine; made in house; host or cells: E. coli
# assay: Kinetic thiol consumption assay with Cdk2 mutant S276C
# Type: binding
# Set-up: key: rate constant with Cdk2 ÷ rate constant with model thiol (fold)
# condition: Cdk2 S276C, additional mutation C177A
Param label: returns 1.0 when Rate enhancement, Cdk2 S276C < 0.6, returns 0.0 otherwise, including exact equality.

Task: Please indicate whether the reported Rate enhancement, Cdk2 S276C of C=CC(=O)N1CC(OCCN(CC)CC)C1 is strictly below 0.6.
Result: 1.0

Task: Please indicate whether the reported Rate enhancement, Cdk2 S276C of C=CC(=O)N1CCC(c2nc3ccccc3[nH]2)CC1 is strictly below 0.6.
Result: 0.0

Task: Please indicate whether the reported Rate enhancement, Cdk2 S276C of C=CC(=O)N1CCOC2(CCCCC2)C1 is strictly below 0.6.
Result: 0.0

Task: Please indicate whether the reported Rate enhancement, Cdk2 S276C of CN(C#N)Cc1ccccc1 is strictly below 0.6.
Result: 0.0

Task: Please indicate whether the reported Rate enhancement, Cdk2 S276C of C=CC(=O)NCCCN(C(=O)C1CCC1)C1CC1 is strictly below 0.6.
Result: 0.0

Task: Please indicate whether the reported Rate enhancement, Cdk2 S276C of C=CC(=O)N1CCC2(CCCCCC2)C1 is strictly below 0.6.
Result: 0.0

Task: Please indicate whether the reported Rate enhancement, Cdk2 S276C of C=CC(=O)N1CCCc2sccc2C1 is strictly below 0.6.
Result: 0.0

Task: Please indicate whether the reported Rate enhancement, Cdk2 S276C of O=C(CCl)N1CCSc2ccccc21 is strictly below 0.6.
Result: 0.0

Task: Please indicate whether the reported Rate enhancement, Cdk2 S276C of C=CC(=O)N1CCN(Cc2noc(C3CC3)n2)CC1 is strictly below 0.6.
Result: 0.0

Task: Please indicate whether the reported Rate enhancement, Cdk2 S276C of C=CC(=O)N1CC2CC2C1 (stereo not shown) is strictly below 0.6.
Result: 1.0

Task: Please indicate whether the reported Rate enhancement, Cdk2 S276C of C=CC(=O)N(CCCN1CCOCC1)Cc1ccncc1 is strictly below 0.6.
Result: 1.0

Task: Please indicate whether the reported Rate enhancement, Cdk2 S276C of C=CC(=O)N1CCCC(C(=O)OCC)C1 (stereo not shown) is strictly below 0.6.
Result: 1.0

Task: Please indicate whether the reported Rate enhancement, Cdk2 S276C of C=CC(=O)NCc1ccccc1 is strictly below 0.6.
Result: 0.0

Task: Please indicate whether the reported Rate enhancement, Cdk2 S276C of C=CC(=O)NC1C2CC3CC(C2)CC1C3 (stereo not shown) is strictly below 0.6.
Result: 0.0

Task: Please indicate whether the reported Rate enhancement, Cdk2 S276C of C=CC(=O)N1C(C(=O)c2ccccc2)C1c1ccccc1 (stereo not shown) is strictly below 0.6.
Result: 0.0

Task: Please indicate whether the reported Rate enhancement, Cdk2 S276C of C=CC(=O)N1CCc2cc(-c3cccc(F)c3)ccc21 is strictly below 0.6.
Result: 1.0

Task: Please indicate whether the reported Rate enhancement, Cdk2 S276C of C=CC(=O)Nc1nc2cc3c(cc2s1)OC(F)(F)O3 is strictly below 0.6.
Result: 0.0

Task: Please indicate whether the reported Rate enhancement, Cdk2 S276C of C=CC(=O)N1CCN(c2cc(N3CCOCC3)ncn2)CC1 is strictly below 0.6.
Result: 0.0

Task: Please indicate whether the reported Rate enhancement, Cdk2 S276C of C=CC(=O)Nc1ccccc1N1CCOCC1 is strictly below 0.6.
Result: 1.0

Task: Please indicate whether the reported Rate enhancement, Cdk2 S276C of C=CC(=O)N1CC(CCN2CCCC2=O)c2ccccc21 (stereo not shown) is strictly below 0.6.
Result: 0.0

Task: Please indicate whether the reported Rate enhancement, Cdk2 S276C of C=CC(=O)NCC1CCCN1S(=O)(=O)c1ccc(C(=O)O)cc1 (stereo not shown) is strictly below 0.6.
Result: 1.0

Task: Please indicate whether the reported Rate enhancement, Cdk2 S276C of C=CC(=O)NC1CC2CC1C1CCCC21 (stereo not shown) is strictly below 0.6.
Result: 1.0
